All values here come from patent US20260242759A1.

# targetDesc: purified bimane labeled ghrelin receptor (human, cysmin mutant, in lipidated nanodiscs) (human) (UniProt Q92847)
# Sequence (Q92847 other isoform, or with tags, fused parts or gaps mutant): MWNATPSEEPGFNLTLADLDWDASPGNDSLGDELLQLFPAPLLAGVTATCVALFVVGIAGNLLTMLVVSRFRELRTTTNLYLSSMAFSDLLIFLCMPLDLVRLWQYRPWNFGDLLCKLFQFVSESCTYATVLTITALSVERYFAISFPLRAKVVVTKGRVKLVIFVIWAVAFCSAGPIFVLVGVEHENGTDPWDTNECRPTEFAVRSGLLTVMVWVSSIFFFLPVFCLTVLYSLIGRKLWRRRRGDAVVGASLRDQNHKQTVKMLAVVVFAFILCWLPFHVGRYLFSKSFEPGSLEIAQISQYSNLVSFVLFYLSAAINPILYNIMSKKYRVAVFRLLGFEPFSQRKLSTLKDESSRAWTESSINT
# protocolText: cell-based or functional assay
Positions of bridges follow the written chain, without caps; N, C: chain ends. Non-standard residues stand in square brackets, D forms with d. Lys(N3) = [N-]=[N+]=NCCCC[C@H](N)C(=O)O; Cha = N[C@@H](CC1CCCCC1)C(=O)O; Pra = C#CC[C@H](N)C(=O)O
The following binders are shown together with reported bimane maximum emission wavelength, with agonist JMV1843 values.
The reply should be a number in nm, with the unit left off.

Examples with answers:
[
  {
    "binder": "Ac-KKKFA[Pra]VKD[Lys(N3)]ILQLNLKEYN[Cha]V-OH (triazole 6-10) [SBL-GQ-06]",
    "unitName": "nm",
    "valueMeasured": 478
  },
  {
    "binder": "Ac-KKKFN[Pra]CKD[Lys(N3)]ILQMNLREYNLV-OH (triazole 6-10) [SBL-GQ-11]",
    "unitName": "nm",
    "valueMeasured": 478
  },
  {
    "binder": "Ac-KKKFN[Pra]CKD[Lys(N3)]ILQMNLREYN[Cha]V-OH (triazole 6-10) [SBL-GQ-12]",
    "unitName": "nm",
    "valueMeasured": 478
  }
]

Kindly indicate its recorded bimane maximum emission wavelength, with agonist JMV1843. Item: Ac-KKKFA[Pra]VKD[Lys(N3)]ILQLNLKEYNLV-OH (triazole 6-10) [SBL-GQ-05]
478
